- Test system: SF-268 CNS
- assayOverview: NCI tumour cell line growth inhibition, 48 h
For each of the compounds below, state its TGI.

Examples from the recorded data:
- compound: "CN(c1nc(=[N+](C)C)ss1)C1CCCCC1"
  testReadout: "TGI"
  measuredResult: "> 100 µM"
- compound: "[N-]=[N+]=NCC1OCC(O)C(OCc2ccccc2)C1OCc1ccccc1 (stereo unspecified)"
  testReadout: "TGI"
  measuredResult: "> 100 µM"
- compound: "O=C1C2=Cc3ccccc3OC2(O)Oc2cc(O)cc(O)c21 (stereo unspecified)"
  testReadout: "TGI"
  measuredResult: "> 100 µM"
- compound: "NCCN1C(=O)c2cc(Cl)c(Cl)cc2C1(O)c1ccc(Cl)cc1 (stereo unspecified)"
  testReadout: "TGI"
  measuredResult: "6.65 µM"
- compound: "COc1ccc2cnc(N)c(C#Cc3cc(C(=O)Nc4ccc(CN5CCN(C)CC5)c(C(F)(F)F)c4)cnc3C)c2c1"
  testReadout: "TGI"
  measuredResult: "> 29.6 µM"

Give the measured TGI for COc1cc(O)c2c3c(ccnc13)-c1ccccc1N2
98.9 µM
